- System: HCT-116 cells
- experimental.details: Inhibition test for sphere-forming ability of cancer cells in the presence of BSA (Test Example 2), HCT-116
- Assay type: cell-based, human
- test.parameters: Homo sapiens, HCT-116, 96 h, HCT-116 cells, in the presence of 5% BSA, cultured 4 days
Structures can show the parent of a compound that is named as a salt.
Measured IC50 of individual entries

>  <molecule>
COc1ccc(C(=O)Nc2cn(Cc3cc(F)cc(F)c3)cn2)cc1OC [Example 152]

>  <result.unit>
µM

>  <relation.qualifier>
=

>  <IC50>
0.57

$$$$
>  <molecule>
CC(=O)Nc1ccc(/C=C/C(=O)Nc2cn(Cc3cccc(Cl)c3)cn2)cc1 [Example 9]

>  <result.unit>
µM

>  <relation.qualifier>
=

>  <IC50>
0.91

$$$$
>  <molecule>
COc1ccc(NC(=O)c2cn(Cc3cc(F)c(F)c(F)c3)cn2)cc1OC [Example 251]

>  <result.unit>
µM

>  <relation.qualifier>
=

>  <IC50>
0.77

$$$$
>  <molecule>
CC(=O)Nc1ccc(/C=C/C(=O)Nc2cn(Cc3cc(F)c(F)c(F)c3)cn2)cc1 [Example 11]

>  <result.unit>
µM

>  <relation.qualifier>
=

>  <IC50>
0.26

$$$$
>  <molecule>
COc1ccc(/C=C/C(=O)Nc2cn(Cc3cccc(C(F)(F)F)c3)cn2)cc1OCCO [Example 34]

>  <result.unit>
µM

>  <relation.qualifier>
=

>  <IC50>
0.63

$$$$
>  <molecule>
N#Cc1ccc(/C=C/C(=O)Nc2cn(Cc3cccc(Cl)c3)cn2)cc1 [Example 22]

>  <result.unit>
µM

>  <relation.qualifier>
=

>  <IC50>
0.64

$$$$
>  <molecule>
O=C(/C=C/c1ccc(F)c(OCCO)c1)Nc1cn(Cc2cccc(C(F)(F)F)c2)cn1 [Example 39, Hydrochloride]

>  <result.unit>
µM

>  <relation.qualifier>
=

>  <IC50>
6.86

$$$$
>  <molecule>
O=C(/C=C/C=C/c1ccccc1)Nc1cn(Cc2cccc(Cl)c2)cn1 [Example 46]

>  <result.unit>
µM

>  <relation.qualifier>
>

>  <IC50>
10

$$$$
>  <molecule>
COc1ccc(C(=O)Nc2cn(Cc3cccc(Cl)c3)cn2)cc1OC [Example 141]

>  <result.unit>
µM

>  <relation.qualifier>
=

>  <IC50>
4.93

$$$$
>  <molecule>
C=Cc1ncc(C(=O)Nc2cn(Cc3cccc(C(F)(F)F)c3)cn2)cc1OC [Example 100]

>  <result.unit>
µM

>  <relation.qualifier>
=

>  <IC50>
8.38

$$$$
>  <molecule>
O=C(/C=C/c1ccc(NCC(F)F)nc1)Nc1cn(Cc2cccc(Cl)c2)cn1 [Example 14]

>  <result.unit>
µM

>  <relation.qualifier>
=

>  <IC50>
0.36

$$$$
>  <molecule>
Cl.O=C(/C=C/c1ccc(F)c(O)c1)Nc1cn(Cc2cccc(C(F)(F)F)c2)cn1 [Example 37, Hydrochloride]

>  <result.unit>
µM

>  <relation.qualifier>
=

>  <IC50>
0.55

$$$$
>  <molecule>
COc1ccc(C(=O)Nc2cn(Cc3cccc(Cl)c3)c(C)n2)cc1OC [Example 102]

>  <result.unit>
µM

>  <relation.qualifier>
>

>  <IC50>
10

$$$$
>  <molecule>
COc1ccc(/C=C/C(=O)Nc2cn(Cc3cccc(Cl)c3)cn2)cc1O [Example 23]

>  <result.unit>
µM

>  <relation.qualifier>
=

>  <IC50>
0.37

$$$$
>  <molecule>
COc1ccc(/C=C/C(=O)Nc2cn(Cc3cccc(Cl)c3)cn2)cc1OCCO [Example 33]

>  <result.unit>
µM

>  <relation.qualifier>
=

>  <IC50>
0.59

$$$$
>  <molecule>
COc1ccc(C(=O)Nc2cn(Cc3ccc(F)c(F)c3)cn2)cc1OC [Example 151]

>  <result.unit>
µM

>  <relation.qualifier>
=

>  <IC50>
0.65

$$$$
>  <molecule>
COC(=O)c1ccc(OCC(=O)Nc2cn(Cc3cc(F)c(F)c(F)c3)cn2)cn1 [Example 132]

>  <result.unit>
µM

>  <relation.qualifier>
>

>  <IC50>
10

$$$$

---

- Test system: FaDu cells
- experimental.details: Inhibition test for sphere-forming ability of cancer cells (Test Example 1), FaDu
- Type: cell-based, human
- test.parameters: 1 μmol/L, value with %
# cutoff 30% applies to (100%-inhibition rate of cell proliferation) at 1 μmol/L, FaDu; >= gives yes, < gives no

>  <test.smiles>
CCCOc1ccc(C(=O)Nc2cn(Cc3cccc(Cl)c3)cn2)cn1

>  <class.assignment>
yes

$$$$
>  <test.smiles>
COc1ccc(C(=O)Nc2cn(Cc3cccc(Oc4ccccc4)c3)cn2)cc1OC

>  <class.assignment>
yes

$$$$
>  <test.smiles>
COc1ccc(C(=O)Nc2cn(Cc3ccc(Cl)s3)cn2)cc1OC

>  <class.assignment>
no

$$$$
>  <test.smiles>
COc1ccc(Cn2cnc(NC(=O)c3ccc(OC)c(OC)c3)c2)cc1

>  <class.assignment>
yes

$$$$

---

Measured (100%-inhibition rate of cell proliferation) at 1 μmol/L, HCT-116 of individual entries
- System: HCT-116 cells
- experimental.details: Inhibition test for sphere-forming ability of cancer cells (Test Example 1), HCT-116
- Type: cell-based, human
- test.parameters: HCT-116 cells; 1 μmol/L; value with %
observation.type: (100%-inhibition rate of cell proliferation) at 1 μmol/L, HCT-116 (%)

>  <molecule>
COc1ccc(C(=O)Nc2cn(Cc3c(F)ccc(C)c3F)cn2)cc1OC [Example 167]

>  <result.unit>
%

>  <readout.value>
30.5

$$$$
>  <molecule>
COc1ccc(C(=O)Nc2cn(Cc3cccc(Oc4ccccc4)c3)cn2)cc1OC [Example 297]

>  <result.unit>
%

>  <readout.value>
56.6

$$$$
>  <molecule>
CCCCOc1ccc(C(=O)Nc2cn(Cc3cccc(Cl)c3)cn2)cn1 [Example 135]

>  <result.unit>
%

>  <readout.value>
31.8

$$$$
>  <molecule>
COc1ccc(C(=O)Nc2cn(Cc3ccc(C(F)(F)F)cc3)cn2)cc1OC [Example 287]

>  <result.unit>
%

>  <readout.value>
95.8

$$$$
>  <molecule>
COc1ccc(C(=O)Nc2cn(Cc3cccc(C(F)(F)F)c3)cn2)cc1OC [Example 165]

>  <result.unit>
%

>  <readout.value>
31.9

$$$$
>  <molecule>
COc1ccc(C(=O)Nc2cn(Cc3cc(Cl)nc(Cl)c3)cn2)cc1OC [Example 170]

>  <result.unit>
%

>  <readout.value>
33.8

$$$$
>  <molecule>
O=C(Nc1cn(Cc2cccc(C(F)(F)F)c2)cn1)c1ccc(=O)[nH]c1 [Example 199]

>  <result.unit>
%

>  <readout.value>
39.8

$$$$
>  <molecule>
COc1ccc(C(=O)Nc2cn(Cc3ccc(C(F)(F)F)o3)cn2)cc1OC [Example 171]

>  <result.unit>
%

>  <readout.value>
36.4

$$$$
>  <molecule>
COc1ccc(C(=O)Nc2cn(Cc3ccc4c(c3)C(C)(C)CCC4(C)C)cn2)cc1OC [Example 172]

>  <result.unit>
%

>  <readout.value>
34.3

$$$$
>  <molecule>
O=C(Nc1cn(Cc2cccc(C(F)(F)F)c2)cn1)c1ccc(F)nc1 [Example 226]

>  <result.unit>
%

>  <readout.value>
45.7

$$$$
>  <molecule>
COc1ccc(C(=O)Nc2cn(Cc3cccc(C)c3)cn2)cc1OC [Example 291]

>  <result.unit>
%

>  <readout.value>
70.8

$$$$
>  <molecule>
COc1ccc(C(=O)Nc2cn(Cc3cccc(OCc4ccccc4)c3)cn2)cc1OC [Example 169]

>  <result.unit>
%

>  <readout.value>
50.9

$$$$
>  <molecule>
Cc1ccc(C(=O)Nc2cn(Cc3cccc(Cl)c3)cn2)cn1 [Example 198]

>  <result.unit>
%

>  <readout.value>
55.3

$$$$
>  <molecule>
COc1ccc(C(=O)Nc2cn(Cc3cccc(OC(F)(F)F)c3)cn2)cc1OC [Example 166]

>  <result.unit>
%

>  <readout.value>
36.8

$$$$
>  <molecule>
COc1ccc(C(=O)Nc2cn(Cc3ccc(C(C)C)cc3)cn2)cc1OC [Example 168]

>  <result.unit>
%

>  <readout.value>
32.1

$$$$
>  <molecule>
COc1ccc(C(=O)Nc2cn(Cc3ccc(C)c(Cl)c3)cn2)cc1OC [Example 295]

>  <result.unit>
%

>  <readout.value>
83.0

$$$$
>  <molecule>
O=C(Nc1cn(Cc2cccc(Cl)c2)cn1)c1ccc(OCc2ccccc2)cc1 [Example 197]

>  <result.unit>
%

>  <readout.value>
44.3

$$$$
>  <molecule>
COc1ccc(Cn2cnc(NC(=O)c3ccc(OC)c(OC)c3)c2)cc1 [Example 164]

>  <result.unit>
%

>  <readout.value>
37.4

$$$$
>  <molecule>
CCCOc1ccc(C(=O)Nc2cn(Cc3cccc(Cl)c3)cn2)cn1 [Example 136]

>  <result.unit>
%

>  <readout.value>
44.2

$$$$
>  <molecule>
COc1ccc(C(=O)Nc2cn(Cc3ccc(Cl)s3)cn2)cc1OC [Example 173]

>  <result.unit>
%

>  <readout.value>
29.5

$$$$
